tested on: Fibroblast; assay: Incucyte cell viability with human fibroblast; format: toxicity, cell-based; settings: 24 h, 10 µM, compound concentration 10 uM, replicate number 2; further: unitless GR value; below 1 slowed growth and below 0 cell loss
Hi, to clarify the labels: satisfied covers Growth Rate from 0.2 upward, not satisfied covers anything below 0.2.

1. [2H]C([2H])([2H])C1(C([2H])([2H])[2H])Cn2nc(-c3ccc(F)cn3)c(-c3ccnc4[nH]ncc34)c2CO1
satisfied
2. Cc1nc(Nc2ncc(C(=O)Nc3c(C)cccc3Cl)s2)cc(N2CCN(CCO)CC2)n1 [DASATINIB ANHYDROUS]
satisfied
3. CC(=O)N[C@@H](CC(=O)O)C(=O)N[C@@H](CCC(=O)O)C(=O)N[C@H](C(=O)N[C@@H](CC(=O)O)C(=O)CCl)C(C)C.O=C(O)C(F)(F)F
satisfied
4. O=C(NCCc1cc(C(=O)NO)no1)c1ccc(Cl)c(Cl)c1
satisfied
5. Cc1cc(-c2ccc3nc(C4CCOCC4)n(CCOC(F)(F)F)c3c2)cn(C)c1=O
not satisfied
6. CC(=O)N[C@@H](Cc1ccc(O)cc1)C(=O)N[C@H](C(=O)N[C@@H](C)C(=O)N[C@@H](CC(=O)O)C(=O)CCl)C(C)C
satisfied
7. CC(C)(C)OC(=O)Nc1ccc(CNc2nccc(Nc3cc(C(=O)OC(C)(C)C)[nH]n3)n2)cc1
not satisfied
8. O=C(C=Cc1ccc(O)cc1)c1ccc(O)cc1O
satisfied

====

tested on: Fibroblast; assay: Incucyte cell viability with human fibroblast; type: toxicity, cell-based; conditions: 24 h, 10 µM, compound concentration 10 uM, replicate number 2; further: unitless GR value; below 1 slowed growth and below 0 cell loss
Peptide text beside a SMILES is read from it.
Value Type: Growth Rate

1. CC(=O)N[C@@H](CC(C)C)C(=O)N[C@@H](CCC(=O)O)C(=O)N[C@H](C(=O)N[C@H](C=O)CC(=O)O)C(C)C (Ac-LEVD-aldehyde)
0.19
2. CNC(=O)N1CCc2c(c(N3CCCc4cc(-c5cnn(C)c5)c(C(F)F)cc43)nn2C2CCOCC2)C1
0.36
3. CCCNC(=O)[C@H]1O[C@@H]1C(=O)N[C@H](C(=O)N1CCC[C@H]1C(=O)O)[C@@H](C)CC
1
4. COc1cccc(OC)c1S(=O)(=O)Nc1noc2cc(Cn3cccn3)cc(OC)c12
1
5. Cn1ncc2c(-c3c(-c4ccc(F)cn4)nn4c3COC(C)(C)C4)ccnc21
1
6. Cl.Cl.O=C(O)Cn1nnc(-c2ccc(CN(CCCCOc3ccc(CN4CCCC4)cc3)CCc3ccccc3)cc2)n1
1
7. COc1cc(Nc2ncc(F)c(Nc3ccc4c(n3)NC(=O)C(C)(C)O4)n2)cc(OC)c1OC
-0.68
8. Cc1cc(C)c(CNC(=O)c2cc(Cl)c3c(c2C)O[C@@](C)([C@H]2CC[C@H](N(C)C)CC2)O3)c(=O)[nH]1
0.46

====

test system: HEK-293T; assay: Incucyte cell viability with HEK293T; type: toxicity, cell-based; settings: human, 24 h, 10 µM, compound concentration 10 uM, replicate number 1; further: unitless GR value; below 1 slowed growth and below 0 cell loss
Here, each record is paired with measured Growth Rate data.
Value Type: Growth Rate

1) COCCOCCn1nc2c(c1C)-c1c(Cl)ccc3c1c(C)c(C(=O)O)n3CCCOc1cc(cc3c(F)c(Cl)ccc13)CCc1cc(nn1C)CSC2
0.27
2) COc1ccccc1C(=O)Nc1cc2c(cc1N1CCCCC1)n(C)c(=O)n2C
0.58
3) Cc1ncsc1-c1ccc([C@H](C)NC(=O)[C@@H]2C[C@@H](O)CN2C(=O)[C@@H](NC(=O)COCCCOCCNC(=O)C[C@@H]2N=C(c3ccc(Cl)cc3)c3c(sc(C)c3C)-n3c(C)nnc32)C(C)(C)C)cc1
0.46
4) COc1cc2c(NC3CCN(C)CC3)cc(-c3ccc(C)o3)nc2cc1OCCCN1CCCC1
-0.35
5) C[C@H]1CCCN1Cc1nc2cc(NC(=O)c3ccc4c(cnn4C)c3)ccc2[nH]1
0.37

====

test system: Fibroblast; assay: Incucyte cell viability with human fibroblast; assay type: toxicity, cell-based; conditions: 24 h, 10 µM, compound concentration 10 uM, replicate number 1; further: unitless GR value; below 1 slowed growth and below 0 cell loss
Peptide text beside a SMILES is read from it.
Here, each record is paired with measured Growth Rate data.
Value Type: Growth Rate

1) CC(=O)N[C@@H](CC(=O)O)C(=O)N[C@@H](CCC(=O)O)C(=O)N[C@H](C(=O)N[C@@H](CC(=O)O)C(=O)CCl)C(C)C.O=C(O)C(F)(F)F
1
2) C/C=C1\NC(=O)[C@H]2CSSCC/C=C/[C@H](CC(=O)N[C@H](C(C)C)C(=O)N2)OC(=O)[C@H](C(C)C)NC1=O [ROMIDEPSIN]
0.96
3) CCCn1/c(=N/C(=O)c2cccc(C(N)=O)c2)[nH]c2ccccc21
1
4) Cc1nn(CC(F)(F)F)cc1Nc1ncc(Br)c(NCc2ccc(S(N)(=O)=O)cc2)n1
1
5) CC(C)[C@@H]1C(=O)N(S(C)(=O)=O)[C@@H]2CCN(C(=O)/C=C/CN3CCCCC3)[C@H]21.Cl
0.66
6) Cc1ncsc1-c1ccc(CNC(=O)[C@@H]2C[C@@H](O)CN2C(=O)[C@@H](NC(=O)COCCOCCOCCNC(=O)C[C@@H]2N=C(c3ccc(Cl)cc3)c3c(sc(C)c3C)-n3c(C)nnc32)C(C)(C)C)cc1
0.23
7) CCCNC(=O)[C@H]1O[C@@H]1C(=O)N[C@H](C(=O)N1CCC[C@H]1C(=O)O)[C@@H](C)CC
0.65
8) COc1cccc(-c2nccc3c2CN(c2ccccc2)C3=O)c1
0.52
9) CCN1C(C)(C)CC(Oc2ccc(C(=O)Nc3ccc(NC(=O)Nc4cc(C(C)(C)C)on4)cc3)nc2)CC1(C)C
0.74
10) O=C(C=Cc1ccc(O)cc1)c1ccc(O)cc1O
0.64
11) CNCCN(C)Cc1cn[nH]c1-c1ccc(OC2CC(OCCC3CCOCC3)C2)cc1 (stereo not given)
0.77
12) CCCOc1cccc(Oc2cc3c(cc2NS(=O)(=O)c2cccc(C(=O)NCCOCCOCCOCC(=O)N[C@H](C(=O)N4C[C@H](O)C[C@H]4C(=O)NCc4ccc(-c5scnc5C)cc4)C(C)(C)C)c2)n(C)c(=O)n3C)c1
1
13) CC(C)Nc1cc(-c2c[nH]c(C(=O)N[C@H](CO)c3cccc(Cl)c3)c2)c(Cl)cn1 [ULIXERTINIB]
0.93
14) CC[C@H](C)[C@H](NC(=O)[C@H](CCC(=O)O)NC(=O)[C@@H](NC(C)=O)C(C)C)C(=O)N[C@H](C=O)CC(=O)O.O=C(O)C(F)(F)F (Ac-VEID-aldehyde)
1
15) CC(C)(CNC(=O)c1cccc(-c2noc(C(F)(F)F)n2)c1)c1coc(-c2ccccc2)n1
0.48

====

system: U2OS; assay: Incucyte cell viability with U2OS; assay type: toxicity, cell-based; conditions: human, 24 h, 10 µM, compound concentration 10 uM, replicate number 2; further: unitless GR value; below 1 slowed growth and below 0 cell loss
Here, each record is paired with measured Growth Rate data.
Value Type: Growth Rate

1) C[C@H](NC(=O)[C@H](Cc1ccccc1)NC(=O)OCc1ccccc1)C(=O)CF
0.93
2) CC(C)[C@H](NC(=O)OCc1ccccc1)C(=O)NC(CC(=O)O)C(=O)CF (stereo not given in full)
0.69
3) CC(C)(C)OC(=O)Nc1ccc(CNc2nccc(Nc3cc(C(=O)OC(C)(C)C)[nH]n3)n2)cc1
0.67
4) NC(=O)c1cccc(NC(=O)CCC(=O)NCCc2cn(CCNS(=O)(=O)c3cccc(C(=O)O)c3)nn2)c1
1
5) Cn1cc(NC(=O)c2cc(F)cc(F)c2)c(C(=O)NC2CCNCC2)n1
0.71

====

test system: HEK-293T; assay: Incucyte cell viability with HEK293T; format: toxicity, cell-based; conditions: human, 24 h, 10 µM, compound concentration 10 uM, replicate number 2; further: unitless GR value; below 1 slowed growth and below 0 cell loss
Here, each record is paired with measured Growth Rate data.
Value Type: Growth Rate

1. O=C(Nc1ccc2[nH]nc(-c3ccncc3)c2c1)[C@@H]1CCN(CC(=O)N2CCN(c3ccc(-c4ncccn4)cc3)CC2)C1
-0.01
2. N#Cc1ccc([C@H]2CCCC[C@H]2O)cc1C(F)(F)F
0.95
3. O=C(NO)c1cccc(C(=O)NCCc2ccccc2)c1
0.99
4. O=C(CCCCCCNC(=O)c1cnc(N(c2ccccc2)c2ccccc2Cl)nc1)NO [CITARINOSTAT]
1
5. COc1ccccc1C(=O)Nc1cc2c(cc1N1CCCCC1)n(C)c(=O)n2C
0.99
6. CC(=O)N[C@@H](CC(=O)O)C(=O)N[C@@H](CCC(=O)O)C(=O)N[C@H](C(=O)N[C@@H](CC(=O)O)C(=O)CCl)C(C)C.O=C(O)C(F)(F)F
1
7. CC/C(=C(/c1ccc(/C=C/C(=O)O)cc1)c1ccc2[nH]ncc2c1)c1ccc(F)cc1Cl [BRILANESTRANT]
0.87
8. CCN(CC)S(=O)(=O)c1cc(Nc2nccc(-c3ccnc(-c4ccc(NC(=O)NC)cc4)c3)n2)ccc1Cl
-0.23

All values here come from ChEMBL document CHEMBL5724709.
